Each recorded value in this set is attributed to ChEMBL document CHEMBL1201862.

# Test system: EKVX
# experimentNotes: NCI tumour cell line growth inhibition, 48 h
The source made the active and inactive calls. No stated cut-off is given here; in the data, active = GI50 up to about 1.1 µM and inactive = higher.
Recorded GI50 by entry

The following compounds have reported results that may help.
CCCCC#COS(=O)(=O)c1ccc(C)cc1 | 56.6 µM (inactive)
COC(=O)C[C@H](COCc1ccccc1)NC(=O)C[C@H](COCc1ccccc1)NC(=O)OC(C)(C)C | 18.9 µM (inactive)

-- ask // lookup GI50 | system=EKVX | key= Cc1occc1/C(S)=N\c1ccc(Cl)c(COC(C)(C)C)c1
-- reply 16.3 µM (inactive)

-- ask I'm curious: which GI50 was measured for O=C(/C(=N/Nc1ccccc1)c1ccc([N+](=O)[O-])cc1)c1ccc([N+](=O)[O-])cc1 tested on EKVX?
-- reply > 100 µM (inactive)

-- ask Test system EKVX; read-out GI50; what value for O=C(Nc1ccc2c(c1)oc(=O)c1ccccc12)C(Cl)Cl ?
-- reply 85.5 µM (inactive)

-- ask Which measured GI50 belongs to CCCCCCCCCCCCCCCCCCOP(=O)([O-])OC1CC[N+](C)(C)CC1 , tested on EKVX?
-- reply 11.3 µM (inactive)

-- ask Reported GI50 for EKVX, given Nc1ccc(/N=N/c2ccc(/C=C/c3ccc(/N=N/c4ccc(N)c5ccc(S(=O)(=O)O)cc45)cc3S(=O)(=O)O)c(S(=O)(=O)O)c2)c2cc(S(=O)(=O)O)ccc12 ?
-- reply > 100 µM (inactive)

-- ask # get_value(readout= GI50, system= EKVX) for CN(C)C(=O)OC1=CC2CCC(C1)N2C (stereo unspecified)
-- reply > 100 µM (inactive)

-- ask Form field - read-out: GI50; system: EKVX; submitted item: CCC1CCN/C(=N/S(=O)(=O)c2cc(C)c(Cl)cc2S)N1 (stereo unspecified)
-- reply 32.5 µM (inactive)

-- ask What GI50 appears in the records for this compound with EKVX? CS(=O)(=O)NNS(=O)(=O)c1cccc([N+](=O)[O-])c1
-- reply > 100 µM (inactive)

-- ask Which measured GI50 belongs to CSc1n[n+](C)cc(N)c1N , tested on EKVX?
-- reply > 100 µM (inactive)

* * *

# System: NCI-H23
# experimentNotes: NCI tumour cell line growth inhibition, 48 h
Active and inactive are the calls of the source. Cut-off read from the data, not from the text of the source: active = GI50 up to about 1.1 µM and inactive = higher.
// reported GI50 per item

Example entries and their recorded answers appear below.
COC(=O)[C@@H](NC1(c2ccccc2)c2ccccc2-c2ccccc21)[C@H](OC(=O)[C@H]1CCCN1S(=O)(=O)c1ccccc1)C(=O)OC | > 100 µM (inactive)
O=c1c2cc(-c3ccccc3)sc2nc2n1N=C(c1ccccc1)CS2 | 76 µM (inactive)
C[C@]12C[C@@H](OC(=O)[C@]1(C)O)[C@@H]([C@]1(O)CC[C@H]3[C@@H]4C[C@H]5O[C@]56C[C@H]5O[C@H]5C(=O)[C@]6(C)[C@H]4CC[C@@]31C)C2 | > 50 µM (inactive)
COC(=O)c1cc(OS(=O)(=O)C(F)(F)F)c(=O)n2c1CCCC2 | > 100 µM (inactive)
COc1ccc(C2=Nc3ccccc3SC(C)C2)cc1OC (centres undefined) | 17.7 µM (inactive)

-- ask What measured GI50 goes with Nc1ncnc2c1ncn2C1OC(CO)CC1O (centres undefined) ?
-- reply 90.8 µM (inactive)

-- ask Would you mind telling me what GI50 value was observed for O=C1C=CC(O)(C#CCO)C=C1 ?
-- reply 16.9 µM (inactive)

-- ask Which GI50 is listed for CC1CN(C(=O)CN2CCC(CCCCN(C)C)CC2)c2ccccc2NC1=O (centres undefined) ?
-- reply > 100 µM (inactive)

-- ask State the recorded GI50 for this entry: C=CCOCn1ccc(NC(=O)c2ccccc2)nc1=O
-- reply > 100 µM (inactive)

* * *

# Test system: NCI/ADR-RES
# experimentNotes: NCI tumour cell line growth inhibition, 48 h
Calls of active or inactive are those of the source. Cut-off read from the data, not from the text of the source: active = GI50 up to about 1.1 µM and inactive = higher.
The entries below come with measured GI50 values attached.

-- ask Please give the measured GI50 for this compound: CC1(C(=O)O)CCC2(C)CCC3(C)C(=CC(=O)C4C5(C)CCC(O)C(C)(C)C5CCC43C)C2C1 (stereo not given)
-- reply 46 µM (inactive)

-- ask I would be grateful if you could share the reported GI50 for COP(=O)(OC)/C(=C\C1=CN(C(c2ccccc2)(c2ccccc2)c2ccccc2)CN1)NC=O .
-- reply 15.8 µM (inactive)

-- ask Endpoint output: GI50 of COc1cccc(-c2cc(O)c3cccnc3n2)c1 . Value?
-- reply 0.0617 µM (active)

-- ask Entry under review: c1ccc(Nc2nnc(-c3ccccc3Nc3ccccc3-c3nnc(Nc4ccccc4)s3)s2)cc1 . Reported GI50?
-- reply > 100 µM (inactive)

-- ask GET /values?readout=GI50&item= N#CCCN(CCNc1ccccc1)C(=O)Nc1ccc(NC(=O)N(CCC#N)CCNc2ccccc2)cc1
-- reply > 63.8 µM (inactive)

* * *

# System: LXFL 529
# experimentNotes: NCI tumour cell line growth inhibition, 48 h
Activity calls are given as the source filed them. Rule as the data show it: active = GI50 up to about 1.1 µM and inactive = higher.
endpointLabel: GI50

COc1cccc(-c2nccc3c(OCc4ccccc4)c(OC)c(OC)cc23)c1 | 5.74 µM (inactive)

-- ask # query: GI50 of entry C[N+](C)(C)CC1CCc2ccccc2C1=O (configuration not stated)
-- reply 2.57 µM (inactive)

-- ask Need GI50, item NC(CCc1ncc(C(=O)O)s1)C(=O)O (configuration not stated)
-- reply > 100 µM (inactive)

* * *

Quick reference for GI50 among some molecules
# Test system: MDA-N
# experimentNotes: NCI tumour cell line growth inhibition, 48 h
Active and inactive are the calls of the source. Rule as the data show it: active = GI50 up to about 1.1 µM and inactive = higher.

Known results for molecules:
O=C1NN=C2C=C(c3ccc(Cl)cc3)CC(c3cccc(Cl)c3)C12 (centres undefined) | 23.4 µM (inactive)
COc1cccc(-c2cc(O)c3cccnc3n2)c1 | 0.0159 µM (active)
Cc1c(-c2ccccc2)c(C#N)c2nnn(-c3ccccc3)c(=O)n12 | > 100 µM (inactive)
Brc1cccc(C2(CCCC3(c4cccc(Br)n4)OCCO3)OCCO2)n1 | > 100 µM (inactive)
COc1ccc([C@]23CCN(S(=O)(=O)c4ccc(C)cc4)[C@H]2[C@H](CO)C2(CC3)OCC(C)(C)CO2)cc1OC | > 100 µM (inactive)

-- ask Tell me reported GI50 for ClC1=C(Cc2ccccc2)Cc2ccc3c(c21)CCC3 , tested with MDA-N.
-- reply 36.6 µM (inactive)

-- ask What reported GI50 corresponds to O=c1c2cc(-c3ccccc3)sc2nc2n1N=C(c1ccccc1)CS2 on MDA-N?
-- reply 34.9 µM (inactive)

-- ask Checklist item: GI50 tested on MDA-N, entry CCCCCCCCCCCCCCN , value?
-- reply > 100 µM (inactive)

-- ask Provide value of GI50 for this record tested with MDA-N: C[n+]1c(/C=C/c2ccc(O)c3ncccc23)[se]c2ccccc21
-- reply 5.98 µM (inactive)

* * *

Reported GI50 values for a set of compounds
# Tested on: OVCAR-4
# experimentNotes: NCI tumour cell line growth inhibition, 48 h
Activity calls are given as the source filed them. Rule as the data show it: active = GI50 up to about 1.1 µM and inactive = higher.

CCOC(=O)c1ncoc1[C@H]1COC(C)(C)O1 | > 100 µM (inactive)
CCCCNC(=O)Nc1c(C(N)=O)c2n(c1C(=O)OCC)CCCCC2 | > 100 µM (inactive)
CC1(O)C(C)(O)C(C)(O)C1(C)O (stereo not drawn) | > 100 µM (inactive)
O=C(/C=C/c1ccccc1O)c1cccs1 | > 100 µM (inactive)
N#Cc1cccc(/C=N/C23CC4CC(CC(C4)C2)C3)c1 | > 100 µM (inactive)

-- ask Item: CN(C)C(=O)OC1=CC2CCC(C1)N2C (stereo not drawn) Test system: OVCAR-4 Read-out: GI50 Value: ?
-- reply > 100 µM (inactive)

-- ask Lab note: need GI50 with OVCAR-4 for entry COC(=O)c1cc(OS(=O)(=O)C(F)(F)F)c(=O)n2c1CCCC2 , please look it up.
-- reply > 100 µM (inactive)

-- ask Field: GI50 (OVCAR-4). Entry: CCNC(=O)Nc1cccc(NC(=O)NCC)n1
-- reply > 100 µM (inactive)

-- ask Query for OVCAR-4: what GI50 does the record show for CCOC1=NC(C(F)(F)F)(C(F)(F)F)N=C(N2CCOCC2)O1 ?
-- reply > 100 µM (inactive)

-- ask Lab request: please report GI50 under test system OVCAR-4 for CC(=O)c1ccc2c(c1)c1c(C)c3c[n+](C)ccc3c(C)c1n2C
-- reply 4.85 µM (inactive)

-- ask Which GI50 is reported with OVCAR-4 for this entry: Clc1ccc(C2ON=C(c3ccccc3)N2C23CC4CC(CC(C4)C2)C3)cc1 (stereo not drawn) ?
-- reply > 10 µM (inactive)

-- ask Record lookup: for OVCAR-4, what GI50 belongs to Cc1cc(Cc2c(C)c(C)c(Cc3cc(C)cc(C(C)(C)C)c3O)c(C)c2C)c(O)c(C(C)(C)C)c1 ?
-- reply > 100 µM (inactive)
